- Study System: Alpha-bungarotoxin (Bungarus multicinctus)
- Assay Summary: alpha-bungarotoxin binders on microarray, profiling panel, artefact control for SMM control protein annotation, biochemical, small-molecule microarray, Alexa647 label, 635/667 nm fluorescence (AID 1117)
- Experimental Parameters: alpha-BTX-A647 binding fluorescence, higher = more signal
Quick rule for you: composite z-score at 0.3 or higher means Yes, lower means No.

The examples below pair each entry with its known result.
- Compound: "O=C(NCCO)C1=C[C@H](Oc2ccccc2I)[C@@H](O)[C@H](NCc2ccc(F)cc2)C1"
  Class Assignment: "No"
- Compound: "CC(=O)c1ccc(C(O)C2C=CC3C(=O)NC(=O)C3N2Nc2ccc(Cl)cc2Cl)cc1 (stereo not given)"
  Class Assignment: "No"
- Compound: "Cc1ccc(F)cc1S(=O)(=O)N[C@@H]1CCN(Cc2ccc3c(c2)OCO3)C1"
  Class Assignment: "Yes"
- Compound: "CC(c1ccccc1)C(O)C1C=CC2C(=O)N(c3ccccc3)C(=O)C2N1Nc1ccc(C#N)cc1 (stereo not given)"
  Class Assignment: "Yes"

Next item in the queue.
Query: Would you say `C=C(COC)/C(=C/C[C@@H](OC(C)=O)c1ccccc1OCCO)c1cc(C(=O)OC)ccc1OC` shows composite z-score at minimum 0.3?
Reply: Yes

====

- Study System: Calmodulin-1 (Homo sapiens) (UniProt P0DP23)
- Assay Summary: CALM1 binders on microarrays, EGTA buffer, profiling panel, biochemical, small-molecule microarray, Cy5-labelled CALM1 (AID 1111);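 note: labelled calmodulin applied in Tris saline Tween buffer holding calcium plus EGTA and DTT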
- Experimental Parameters: Cy5-CALM1 binding fluorescence, higher = more signal
Below is a list of entries, each paired with its recorded composite z-score value.
Note: the reply should be a number with no unit written.

Below are worked cases with known answers.
- Compound: "CN1C(=O)C2C(C1=O)C1C=C(c3ccc(CO)cc3)C2C(c2cccs2)N1C (centres undefined)"
  composite z-score: 1.47
- Compound: "CCOC(=O)C[C@H]1[C@H](OC(=O)c2ccc(-c3ccccc3)cc2)[C@@H](NC(=O)c2ccc3ccccc3c2)c2cc(OCCCO)ccc2N1C(=O)c1ccccc1"
  composite z-score: 0.128
- Compound: "CCCCCCc1nc(-c2ccc(OC)nc2)cc2c1[Si](C(C)C)(C(C)C)OC2"
  composite z-score: -0.464

Note to self: composite z-score recorded for COC(=O)C1(CC(C)C)C=C2C(=C(C(C)C)C(=O)C2C)CN1 (centres undefined) was 0.228

====

- Assay Summary: CREB reporter modulators without forskolin, primary screen, cell-based, PC12, CRE-LacZ reporter, unstimulated (AID 1145)
- Experimental Parameters: no forskolin, luminescence, 4.5 h, called active from +8 up or from −8 down
Calls of active or inactive are those of the source.
Your reply should match one of these outcome classes. YES for active, NO for inactive

The examples below pair each entry with its known result.
- Compound: "COCCOC(=O)N1C(=O)[C@@]2(c3cc(C#CCCO)ccc31)[C@H](C(=O)N1CCN(c3ncccn3)CC1)[C@H]1C(=O)O[C@H](c3ccccc3)[C@H](c3ccccc3)N1[C@@H]2c1ccc(O)cc1"
  Class Assignment: "NO"
- Compound: "COc1ccc([Si](C)(C)[C@H]2[C@H](CC(=O)N3Cc4ccccc4C[C@H]3CO)O[C@@]3(C(=O)N(Cc4cccc(N5C(=O)c6cccc7cccc5c67)c4)c4ccccc43)[C@@H]2C)cc1"
  Class Assignment: "YES"
- Compound: "C=CCC(OC(C)=O)[C@@H]1[C@@H](N(Cc2cc3ccccc3o2)C(=O)Cc2ccc(OC)cc2)c2cc(OCCCO)ccc2N1C(=O)Cc1ccc2ccccc2c1 (stereo partly specified)"
  Class Assignment: "NO"
- Compound: "CC(C)C[C@@H]1NC(=O)C([C@@H](C)OCc2ccccc2)NC(=O)[C@@]23C(=O)N[C@@H](Cc4ccccc4)C2[C@H](C)[C@@]2(C)O[C@H]2C3/C=C/CC/C=C/CNC1=O (stereo partly specified)"
  Class Assignment: "NO"
- Compound: "COC(=O)[C@@]1(Cc2ccc(OC)cc2)[C@@H]2[C@@H](CC(=O)[C@H]2CC(=O)C(=O)N2CCCC2)CN1C(=O)c1ccccc1"
  Class Assignment: "NO"

Next item in the queue.
Query: State the result this test recorded for `CN(C)CCCCNC(=O)[C@H]1C[C@H]2C(=O)N[C@@H](Cc3ccccc3)C(=O)N2[C@H]1c1cccc(OCCO)c1` .
Reply: NO
